Measured values drawn from ChEMBL document CHEMBL4402531 for this set.

Test system: HepG2
Test: Growth inhibition of human HepG2 cells
Assay type: functional, cell-based
property: IC50 (µM)

| molecule | assayed.target | property | reading.unit | reported.measurement |
| --- | --- | --- | --- | --- |
| CCCCC/C=C/C(=O)CCc1ccc(O)c(OC)c1 [SHOGAOL] | HepG2 | IC50 | µM | 88 |

----------
Test system: CNE
Test: Cytotoxicity against human CNE1 cells assessed as reduction in cell viability after 48 hrs
Type: functional, cell-based
property: IC50 (nM)

| test.smiles | property | reported.measurement |
| --- | --- | --- |
| C=C1C(=O)[C@]23[C@H](O)[C@@H]1CC[C@H]2[C@]12CCCC(C)(C)[C@H]1[C@H](O)[C@@]3(O)OC2 | IC50 | 1260 |

----------
Tested on: U2OS
Assay: Cytotoxicity against human U2OS cells assessed as reduction in cell viability after 48 hrs
Format: functional, cell-based
pIC50: −log10 of the molar value.

| molecule | assayed.target | pIC50 |
| --- | --- | --- |
| O=C(/C=C(\O)c1ccccc1)c1ccccc1O [2',beta-DIHYDROXYCHALCONE] | U2OS | 4.71 |

----------
System: K562
Assay: Induction of apoptosis in human K562 cells
Format: functional, cell-based
property: IC50

| test.smiles | assayed.target | reported.measurement |
| --- | --- | --- |
| COc1cc(/C=C/C(=O)C(=Cc2ccncc2)C(=O)/C=C/c2ccc(O)c(OC)c2)ccc1O | K562 | 400 to 3200 nM |

----------
Test system: MCF7
Assay: Cytotoxicity against human MCF7 cells assessed as reduction in cell viability after 24 to 48 hrs by MTS assay
Type: functional, cell-based

| compound | assayed.target | IC50 |
| --- | --- | --- |
| C=CC(C)(C)c1cc(/C=C/C(=O)c2ccc(O)cc2)c(OC)cc1O [LICOAGROCHACONE A] | MCF7 | 22 µM |
